// data source = patent US11066396B2

Observed IC50 for UniProt:Q13547, reported per entry below.
Provide a numeric answer, followed by its unit.

Sample records with IC50:
# compound, measurement target, IC50
measured = [
    ("CN1CCC(C(=O)N(Cc2ccc(-c3noc(C(F)(F)F)n3)cn2)c2cccc(F)c2)C1 (racemic) [Example 403]", "UniProt:Q13547", "0.25 µM"),
    ("O=C1CNCC(c2ccccc2)N1c1ccc(-c2noc(C(F)(F)F)n2)cc1 (stereo not shown) [Example 39]", "UniProt:Q13547", "0.55 µM"),
    ("O=C(Cc1cnccn1)N(Cc1ccc(-c2noc(C(F)(F)F)n2)cc1)c1cccc(C(F)(F)F)c1 [Example 94]", "UniProt:Q13547", "1.4 µM"),
]

Reported IC50, compound FC(F)(F)c1nc(-c2ccc(CNc3cncnc3)nc2)no1 [Example 369] : ____ 0.93 µM

###

Each entry below lists one item and its recorded IC50 value.
measurement target: HDAC8 (Homo sapiens (Human))
Sequence (Q9BY41 whole entry): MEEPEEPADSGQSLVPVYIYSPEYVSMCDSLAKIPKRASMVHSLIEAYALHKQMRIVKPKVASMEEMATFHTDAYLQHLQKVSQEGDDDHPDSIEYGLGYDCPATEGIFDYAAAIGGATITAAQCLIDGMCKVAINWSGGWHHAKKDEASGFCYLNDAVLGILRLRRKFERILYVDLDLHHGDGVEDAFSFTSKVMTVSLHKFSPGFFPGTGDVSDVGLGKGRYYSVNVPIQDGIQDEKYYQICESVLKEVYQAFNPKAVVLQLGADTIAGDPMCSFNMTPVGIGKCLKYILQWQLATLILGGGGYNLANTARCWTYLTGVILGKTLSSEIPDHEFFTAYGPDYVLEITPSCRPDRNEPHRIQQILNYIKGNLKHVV
// return numeric value only (unit: µM, not printed)

Sample records with IC50:
# molecule, IC50 / µM
rows = [
    ("OCc1cc(NCc2ccc(-c3noc(C(F)(F)F)n3)cn2)ccc1F", 1.6),
    ("Cc1cc(CC(=O)N(Cc2ccc(-c3noc(C(F)(F)F)n3)cn2)c2cccc(F)c2)on1", 1.5),
    ("Cn1nccc1CCOc1cc(-c2noc(C(F)(F)F)n2)ccn1", 0.88),
    ("O=c1ccc2ccc(Br)cc2n1Cc1ccc(-c2noc(C(F)(F)F)n2)cc1", 2.6),
    ("FC(F)(F)c1nc(-c2ccc(CNc3ccccn3)cc2)no1", 2.1),
    ("CC(=O)NC(Cc1ccc(-c2noc(C(F)(F)F)n2)cn1)c1cccc(C(F)(F)F)c1 (centres unmarked)", 4.5),
    ("FC(F)(F)c1cccc(C2COCCN2c2ccc(-c3noc(C(F)(F)F)n3)cn2)c1 (racemic)", 20),
    ("CC(Oc1nccc(-c2noc(C(F)(F)F)n2)c1Cl)c1cccnc1 (racemic)", 2.3),
]

Reported IC50, molecule Fc1cnc(OCc2ccc(-c3noc(C(F)(F)F)n3)c(F)c2)nc1 : ____ 0.54

Try this molecule next: O=C1CC[C@@H](c2nc3ccccc3o2)N1c1ccc(-c2noc(C(F)(F)F)n2)cc1F 0.35

Try this molecule next: CC(C)(C)OC(=O)N(Cc1ccc(-c2noc(C(F)(F)F)n2)cn1)c1cccc(F)c1 19

Try this molecule next: O=C1CC[C@@H](c2nc3ccccc3o2)N1c1ccc(-c2noc(C(F)(F)F)n2)cc1 0.44

Try this molecule next: O=C1CNCC(c2ccccc2)N1c1ccc(-c2noc(C(F)(F)F)n2)cc1 (centres unmarked) 1.6

Try this molecule next: CC(Oc1cc(-c2noc(C(F)(F)F)n2)ccn1)c1nc2ccccc2[nH]1 (racemic) 0.9

Try this molecule next: O=C1CCC(c2cccc(Cl)c2)N1c1ccc(-c2noc(C(F)(F)F)n2)cc1F (racemic) 14

Try this molecule next: CN1CCC(C(=O)N(Cc2ccc(-c3noc(C(F)(F)F)n3)cn2)c2cccc(F)c2)C1 (racemic) 2

Try this molecule next: O=C(CN1CCOCC1)NC(Cc1ccc(-c2noc(C(F)(F)F)n2)cn1)c1cccc(C(F)(F)F)c1 (racemic) 11

###

measurement target: HDAC1 (Homo sapiens (Human), UniProt Q13547)
Sequence (Q13547 whole entry): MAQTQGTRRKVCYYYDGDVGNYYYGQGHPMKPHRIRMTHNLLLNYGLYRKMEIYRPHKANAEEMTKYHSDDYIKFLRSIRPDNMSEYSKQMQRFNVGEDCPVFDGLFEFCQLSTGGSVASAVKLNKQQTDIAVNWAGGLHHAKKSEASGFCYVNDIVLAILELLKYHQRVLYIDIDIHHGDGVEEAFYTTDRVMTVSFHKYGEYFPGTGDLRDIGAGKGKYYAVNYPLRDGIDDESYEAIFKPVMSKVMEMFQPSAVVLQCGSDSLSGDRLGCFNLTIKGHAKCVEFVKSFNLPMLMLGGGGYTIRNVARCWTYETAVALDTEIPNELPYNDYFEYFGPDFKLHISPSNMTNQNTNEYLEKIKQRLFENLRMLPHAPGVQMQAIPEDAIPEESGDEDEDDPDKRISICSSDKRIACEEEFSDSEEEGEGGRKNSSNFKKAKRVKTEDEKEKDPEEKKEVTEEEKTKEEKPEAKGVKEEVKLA
Each entry below lists one item and its recorded pIC50 value.
Keep in mind that pIC50 stands for -log10 of concentration in molar terms.

# compound, measurement target, pIC50
records = [
    ("CC(Oc1nccc(-c2noc(C(F)(F)F)n2)c1Cl)c1cccnc1 (racemic)", "HDAC1 (Homo sapiens (Human), UniProt Q13547)", 5.48),
]

Reported pIC50, compound Cc1nc2c(c(=O)[nH]1)CC(NCc1ccc(-c3noc(C(F)(F)F)n3)cc1)CC2 (racemic) : ____ 5.92

Try this compound next: Fc1cc(CNc2ccc3ccncc3c2)ccc1-c1noc(C(F)(F)F)n1 5.80

Try this compound next: CC1(C(=O)NC(Cc2ccc(-c3noc(C(F)(F)F)n3)cn2)c2cccc(C(F)(F)F)c2)COC1 (racemic) 6.10
